tested on: Grand Mal; assay: Electro shock test, rat; type: in vivo
READOUT: ED50 (mg/kg)

molecule=NS(=O)(=O)c1ccc(N2CN(c3ccccc3)CC2=O)c(F)c1 system_tested="Grand Mal" readout=ED50 meas_value=10
molecule=NS(=O)(=O)c1ccc(N2CN(C3CCCCC3)CC2=O)c(Cl)c1 system_tested="Grand Mal" readout=ED50 meas_value=25
molecule=NS(=O)(=O)c1ccc(N2C(=O)CN(c3ccccc3)C2=O)c(Cl)c1 system_tested="Grand Mal" readout=ED50 meas_value=10
molecule=NS(=O)(=O)c1ccc(N2CN(c3ccccc3)CC2=O)c(Cl)c1 system_tested="Grand Mal" readout=ED50 meas_value=5
molecule="CC1C(=O)N(c2ccc(S(N)(=O)=O)cc2Cl)CN1c1ccccc1 (stereo not drawn)" system_tested="Grand Mal" readout=ED50 meas_value=10
